- Tested on: OVCAR-8 ovarian
- Test: NCI tumour cell line growth inhibition, 48 h
Measured endpoint: TGI

The reported OVCAR-8 ovarian TGI of COC(=O)c1c(C)cccc1C1CN=NC12Cc1cc(C)cc(C)c1C2=O (stereo not given) is > 100 µM

For C1CN(P2(N3CC3)=NP(N3CC3)(N3CC3)=NP(N3CC3)(N3CC3)=N2)CCO1 (stereo not given) on OVCAR-8 ovarian, measured TGI was > 100 µM

TGI of `Cc1[nH]c(N)nc(=S)c1CCC(=O)O` , assay on OVCAR-8 ovarian, is > 100 µM

Here `CN(C)CCOc1ccc(-c2c(Oc3ccccc3)c(=O)oc3ccccc23)cc1` was tested on OVCAR-8 ovarian, and its TGI came to 29.6 µM

Field TGI (system: OVCAR-8 ovarian) for entry `CCN(CC)c1ccc(/C=C2\CCc3ccc([N+](=O)[O-])cc3C2=O)cc1` = > 100 µM

# lookup: `C=C1C(=O)O[C@H]2[C@H]1CC/C(COC(=O)CCCc1c[nH]c3ccccc13)=C\CC[C@@]1(C)O[C@@H]21` on OVCAR-8 ovarian, TGI = 11.2 µM

Simply: `C#C[C@@]1(O)CCCC2=CC3(CC[C@]21C)SCCS3` , OVCAR-8 ovarian, TGI = > 100 µM

Value (TGI, OVCAR-8 ovarian) for record Cc1cc2c(cc1C)C(=O)C1(C2)Cc2cc3c(cc2C1=O)CCC3 (stereo not given) = > 100 µM

Result for `COc1ccc(/C=C2\SC(=Nc3ccccc3)NC2=O)cc1` , tested on OVCAR-8 ovarian, TGI: 31.7 µM

Lab entry: OVCAR-8 ovarian assay, molecule `CC(=O)NNc1nc(C)c(C(=O)/C=C/c2ccc(Cl)cc2)s1` , TGI = > 100 µM
